Target Or Test System: Avena-derived HPPD SEQ ID NO: 1 (Avena sativa, UniProt A0ACD5V6K6, DEL109-109)
Sequence (A0ACD5V6K6 entry or part of it DEL109-109): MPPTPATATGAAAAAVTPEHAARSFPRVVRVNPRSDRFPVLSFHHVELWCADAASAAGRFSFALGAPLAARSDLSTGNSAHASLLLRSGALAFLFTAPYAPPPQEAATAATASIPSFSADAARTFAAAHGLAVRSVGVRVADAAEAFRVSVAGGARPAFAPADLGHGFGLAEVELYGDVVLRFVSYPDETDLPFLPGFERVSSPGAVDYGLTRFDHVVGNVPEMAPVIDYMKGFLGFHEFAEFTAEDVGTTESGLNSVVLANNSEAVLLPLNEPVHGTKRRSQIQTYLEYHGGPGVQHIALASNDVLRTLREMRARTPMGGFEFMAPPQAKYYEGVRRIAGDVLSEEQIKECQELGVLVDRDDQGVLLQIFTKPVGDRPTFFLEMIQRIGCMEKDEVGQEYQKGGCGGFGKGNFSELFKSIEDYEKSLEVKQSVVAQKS
Test Summary: biochemical
# maps each entry to its Kd
Dear colleague, please return just the value in nM, with no unit written.

Reference set, count: 2
# Compound, Meas Value
records = [
    ("CS(=O)(=O)c1cc(C(F)(F)F)ccc1C(=O)C(C#N)C(=O)C1CC1 (stereo not drawn)", 1.36),
    ("COCCOCc1nc(C(F)(F)F)ccc1C(=O)C1C(=O)C2CCC(C2)C1=O (stereo not drawn)", 7.1),
]

Next compound, Kd to be filled in.
State the recorded Kd for this entry: `CS(=O)(=O)c1ccc(C(=O)C2C(=O)CCCC2=O)c(Cl)c1COCC(F)(F)F`
0.228
